// data source = PubChem BioAssay AID179

test system: CEM cells HIV-1 protection, formazan growth assay; test: NCI AIDS Antiviral Assay
Property Label: EC50

Molecule	EC50
O=C(Nc1ccc(Cl)cc1)NC(O)C(Cl)(Cl)Cl (configuration not stated)	> 200 µM

Quick batch: EC50 for everything below.
1. c1ccc(N2N=C(c3ccco3)CC2c2ccco2)cc1 (configuration not stated)
2. O=S(=O)(c1ccccc1)N1CC2CC(Br)C(Br)CC21 (configuration not stated)
3. CNC(=O)C(C)NC(=O)C(Cc1ccccc1)NC(=O)OC(C)(C)C (configuration not stated)
4. O=NNc1cnccn1
5. Cn1c(=O)n(C2(C)CSC2)c2ccccc21
6. CCN(CC)C1=Nc2ccccc2-n2c(C)cnc2C1

OUTPUT:
["> 25.7 µM", "> 45.7 µM", "> 200 µM", "> 1700 µM", "> 562 µM", "> 200 µM"]
